Measured values drawn from patent US4146631A for this set.

The following molecules are listed with their measured ED50 values.
system: passive cutaneous anaphylactic (PCA) reaction; test: Passive cutaneous anaphylactic (PCA) reaction, reagin-allergen combination, in rats; format: in vivo; details: Rattus norvegicus, oral, thirty minutes before intravenous allergen, read-out: ED50 (oral dose which produces 50% inhibition of the PCA reaction)
The figure you give is taken to be in mg/kg; do not add the unit.

>  <molecule>
COc1ccc(O)c(C(=O)Nc2nnn[nH]2)c1 [AP]

>  <reported.property>
ED50

>  <result.number>
100

$$$$
>  <molecule>
CCCOc1cccc(C(=O)Nc2nnn[nH]2)c1O [Compound AN]

>  <reported.property>
ED50

>  <result.number>
40

$$$$
>  <molecule>
O=C(Nc1nnn[nH]1)c1cc(C(F)(F)F)ccc1O [Compound BV]

>  <reported.property>
ED50

>  <result.number>
37

$$$$
>  <molecule>
CCC(=O)c1cc(CC)cc(C(=O)Nc2nnn[nH]2)c1O [CF]

>  <reported.property>
ED50

>  <result.number>
0.27

$$$$
>  <molecule>
O=C(Nc1nnn[nH]1)c1cc([N+](=O)[O-])ccc1O [AO]

>  <reported.property>
ED50

>  <result.number>
100

$$$$

Please look at the following molecule next.
Which ED50 value is on record for CC(=O)c1cc(Cl)cc(C(=O)Nc2nnn[nH]2)c1O [Compound AU] ?
1.8
